This section lists AC50 readings for Cytochrome P450 3A4 (Homo sapiens).

Here is how some compounds turned out for AC50.
compound=O=c1[nH]n(-c2cccc3cccnc23)c(=O)c2ccccc12 property_measured=AC50 value_measured="25.1 µM (inconclusive)"
compound=Cc1ccccc1S(=O)(=O)c1c(C)cc(-c2ccccc2)nc1O property_measured=AC50 value_measured="28.2 µM (inconclusive)"
compound=NC(=O)c1ccc([N+](=O)[O-])cc1SCc1ccccc1 property_measured=AC50 value_measured="12.6 µM (inconclusive)"
compound=N#Cc1cccc(NC(=O)N2CC[C@@]3(CCCNC3)C2)c1 property_measured=AC50 value_measured="25.1 µM (inconclusive)"

Problem: Fill in the recorded AC50 for this compound, with Cytochrome P450 3A4 (Homo sapiens) as test system: COc1ccccc1C(OC(=O)c1cccs1)C(=O)NCC1CCCO1 (stereo unspecified)
Sequence (P08684 whole entry): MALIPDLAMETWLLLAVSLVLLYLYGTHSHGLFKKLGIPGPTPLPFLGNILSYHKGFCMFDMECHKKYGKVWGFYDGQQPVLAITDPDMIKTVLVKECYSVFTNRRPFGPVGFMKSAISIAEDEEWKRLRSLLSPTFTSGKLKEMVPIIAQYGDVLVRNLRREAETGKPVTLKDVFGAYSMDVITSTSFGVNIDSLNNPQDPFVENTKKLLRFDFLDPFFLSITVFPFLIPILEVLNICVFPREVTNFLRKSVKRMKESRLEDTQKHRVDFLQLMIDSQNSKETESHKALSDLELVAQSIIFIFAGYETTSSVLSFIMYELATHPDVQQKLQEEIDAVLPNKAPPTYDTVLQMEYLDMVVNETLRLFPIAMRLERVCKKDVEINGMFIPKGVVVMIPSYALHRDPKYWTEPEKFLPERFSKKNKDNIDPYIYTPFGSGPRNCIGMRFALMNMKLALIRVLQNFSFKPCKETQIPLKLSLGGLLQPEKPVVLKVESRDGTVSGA
Solution: 25.1 µM (inconclusive)

Problem: Form field - read-out: AC50; system: Cytochrome P450 3A4 (Homo sapiens); submitted item: "O=c1c(CCc2ccccc2)nc2cnc(N3CCNCC3)nc2n1C1CC1"
Solution: 12.6 µM (inconclusive)

###

Overview of reported IC50 across a group of compounds:
study_target: DNA dC->dU-editing enzyme APOBEC-3G (Homo sapiens)
Sequence (Q9HC16 whole entry): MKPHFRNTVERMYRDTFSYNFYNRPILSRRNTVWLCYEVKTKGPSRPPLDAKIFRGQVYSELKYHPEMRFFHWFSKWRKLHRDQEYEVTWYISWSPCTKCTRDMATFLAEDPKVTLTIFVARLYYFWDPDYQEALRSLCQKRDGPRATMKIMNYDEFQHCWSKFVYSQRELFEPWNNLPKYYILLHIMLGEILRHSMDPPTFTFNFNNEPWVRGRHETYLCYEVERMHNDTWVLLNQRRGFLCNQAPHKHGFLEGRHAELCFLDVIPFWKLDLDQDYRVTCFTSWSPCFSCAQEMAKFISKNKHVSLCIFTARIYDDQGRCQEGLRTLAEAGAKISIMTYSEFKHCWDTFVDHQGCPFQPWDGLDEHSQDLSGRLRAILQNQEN
procedure_details: Dose Response confirmation of small molecule APOBEC3G DNA Deaminase Inhibitors via a fluorescence-based single-stranded DNA deaminase assay. [Related pubchem assays (depositor defined):AID493012, AID493028]
Assay type: functional
Activity calls are given as the source filed them.

See these solved cases before continuing.
compound="COc1ccc(N2C(=O)CC(Sc3n[nH]c(-c4ccccc4)n3)C2=O)cc1 (configuration not stated)" study_target="DNA dC->dU-editing enzyme APOBEC-3G (Homo sapiens)" property_measured=IC50 value_measured="14.9 µM (active)"
compound=O=S(=O)(c1cccc(-c2nnc(S)n2Cc2ccccc2)c1)N1CCOCC1 study_target="DNA dC->dU-editing enzyme APOBEC-3G (Homo sapiens)" property_measured=IC50 value_measured="4.28 µM (active)"
compound=Cc1cc(C)c2c(=O)n(CC(=O)Nc3cccc(F)c3)sc2n1 study_target="DNA dC->dU-editing enzyme APOBEC-3G (Homo sapiens)" property_measured=IC50 value_measured="4.35 µM (active)"
compound=COC(=O)/C=c1/sc2nc3ccccc3n2c1=O study_target="DNA dC->dU-editing enzyme APOBEC-3G (Homo sapiens)" property_measured=IC50 value_measured="30.8 µM (active)"
compound=O=[N+]([O-])c1ccccc1/C=N/n1c(S)nnc1-c1cccnc1 study_target="DNA dC->dU-editing enzyme APOBEC-3G (Homo sapiens)" property_measured=IC50 value_measured="3.08 µM (active)"

Problem: Can you look up the measured IC50 of CCCCCC(O)CCc1nnc(S)n1-c1ccccc1 (configuration not stated) for me?
Solution: 6.33 µM (active)

Problem: Which value of IC50 has been reported for "Cn1c(-c2cc(Br)ccc2O)n[nH]c1=S" in the records?
Solution: 8.33 µM (active)

###

study_target: Ubiquitin-conjugating enzyme E2 N (Homo sapiens, UniProt P61088);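 also: Dose-response confirmation in a TR-FRET assay detecting UBC13-driven polyubiquitin chain formation, inhibition measured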
Sequence (P61088 whole entry): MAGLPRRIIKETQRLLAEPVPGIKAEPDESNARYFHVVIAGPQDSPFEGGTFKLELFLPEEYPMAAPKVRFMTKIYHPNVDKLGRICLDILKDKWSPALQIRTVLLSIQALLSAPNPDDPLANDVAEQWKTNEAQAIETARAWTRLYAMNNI
Type: functional
Active and inactive are the calls of the source.
property_measured: IC50

compound="O=C(Nc1ccc(Cl)c(C(F)(F)F)c1)NC1CC2CCCC(C1)N2Cc1ccccc1 (centres undefined)" study_target="Ubiquitin-conjugating enzyme E2 N (Homo sapiens, UniProt P61088)" value_measured="> 20 µM (inactive)"
compound=NC(=O)c1ccc(Cn2c(C(=O)c3cc(Cl)c(N)c(Cl)c3)c3ccccc3[n+]2[O-])cc1 study_target="Ubiquitin-conjugating enzyme E2 N (Homo sapiens, UniProt P61088)" value_measured="10.8 µM (active)"
compound=CCCCCCNC(=O)N[C@@H](C(=O)NCCC[C@H]1CN2C(=NC[C@@H]2Cc2ccccc2)N1CCc1cccc(OC)c1)C(C)C study_target="Ubiquitin-conjugating enzyme E2 N (Homo sapiens, UniProt P61088)" value_measured="> 20 µM (inactive)"

Could you now consider this next compound?
Problem: Which IC50 is listed for "Cc1nc(N)sc1C(=O)N/N=C/c1ccco1" ?
Solution: > 20 µM (inactive)
